# test-description: Pharmacokinetics in ICR mice after intravenous and intragastric administration
# Assay type: in vivo
# reported-conditions: male, ICR, mouse, plasma, po, 5 mg/kg, ICR mice, PO 5 mg/kg, mean of 3 animals; read-out: MRT(0-t)
Below, each entry is listed alongside its reported MRT last.
Give a bare numeral; the unit h is implied.

>  <compound>
COc1cc(OC(C)C)ncc1-c1nc2c(n1C(C)C)[C@@]1(C(=O)Nc3cc(Cl)ccc31)N(c1cc(Cl)ccc1C)C2=O [Example S-69]

>  <MRT last, h>
4.8

$$$$
>  <compound>
COc1cc(C(C)C)ccc1-c1nc2c(n1C(C)C)[C@@]1(C(=O)Nc3cc(Cl)ccc31)N(c1cc(Cl)ccc1C)C2=O [Example S-32]

>  <MRT last, h>
2.5

$$$$
>  <compound>
COc1cc(OC)c(-c2nc3c(n2C(C)C)[C@@]2(C(=O)Nc4cc(Cl)ccc42)N(c2cc(Cl)ccc2F)C3=O)cn1 [Example S-133]

>  <MRT last, h>
2.19

$$$$
>  <compound>
COc1cc(OC)c(-c2nc3c(n2C(C)C)[C@@]2(C(=O)Nc4cc(Cl)ccc42)N(c2cccc(Cl)c2)C3=O)cn1 [Example S-115]

>  <MRT last, h>
2.24

$$$$
>  <compound>
COc1nc(N(C)C)ncc1-c1nc2c(n1C(C)C)[C@@]1(C(=O)Nc3cc(Cl)ccc31)N(c1cc(Cl)cnc1C)C2=O [Example S-135]

>  <MRT last, h>
2.42

$$$$
>  <compound>
CCOc1cc(OC)c(-c2nc3c(n2C(C)C)[C@@]2(C(=O)Nc4cc(Cl)ccc42)N(c2cc(Cl)ccc2F)C3=O)cn1 [Example S-98]

>  <MRT last, h>
4.41

$$$$

Given item COc1cc(OC(C)C)ncc1-c1nc2c(n1C(C)C)[C@@]1(C(=O)Nc3cc(Cl)ccc31)N(c1cc(Cl)cnc1C)C2=O [Example S-137] , the value recorded as its MRT last is 2.21

Given item CCOc1cc(OC)c(-c2nc3c(n2C(C)C)[C@@]2(C(=O)Nc4cc(Cl)ccc42)N(c2cc(Cl)ccc2C)C3=O)cn1 [Example S-72] , the value recorded as its MRT last is 2.93

Given item CCOc1cc(OC)c(-c2nc3c(n2C(C)C)[C@@]2(C(=O)Nc4cc(Cl)ccc42)N(c2cc(Cl)cnc2C)C3=O)cn1 [Example S-96] , the value recorded as its MRT last is 2.13

Given item COc1ncc(-c2nc3c(n2C(C)C)[C@@]2(C(=O)Nc4cc(Cl)ccc42)N(c2cc(Cl)ccc2F)C3=O)c(OC)n1 [Example S-44] , the value recorded as its MRT last is 3.02
